Source of measurements: ChEMBL document CHEMBL4428062

- target_or_system: Toll-like receptor 8 (Homo sapiens)
- Sequence (whole entry): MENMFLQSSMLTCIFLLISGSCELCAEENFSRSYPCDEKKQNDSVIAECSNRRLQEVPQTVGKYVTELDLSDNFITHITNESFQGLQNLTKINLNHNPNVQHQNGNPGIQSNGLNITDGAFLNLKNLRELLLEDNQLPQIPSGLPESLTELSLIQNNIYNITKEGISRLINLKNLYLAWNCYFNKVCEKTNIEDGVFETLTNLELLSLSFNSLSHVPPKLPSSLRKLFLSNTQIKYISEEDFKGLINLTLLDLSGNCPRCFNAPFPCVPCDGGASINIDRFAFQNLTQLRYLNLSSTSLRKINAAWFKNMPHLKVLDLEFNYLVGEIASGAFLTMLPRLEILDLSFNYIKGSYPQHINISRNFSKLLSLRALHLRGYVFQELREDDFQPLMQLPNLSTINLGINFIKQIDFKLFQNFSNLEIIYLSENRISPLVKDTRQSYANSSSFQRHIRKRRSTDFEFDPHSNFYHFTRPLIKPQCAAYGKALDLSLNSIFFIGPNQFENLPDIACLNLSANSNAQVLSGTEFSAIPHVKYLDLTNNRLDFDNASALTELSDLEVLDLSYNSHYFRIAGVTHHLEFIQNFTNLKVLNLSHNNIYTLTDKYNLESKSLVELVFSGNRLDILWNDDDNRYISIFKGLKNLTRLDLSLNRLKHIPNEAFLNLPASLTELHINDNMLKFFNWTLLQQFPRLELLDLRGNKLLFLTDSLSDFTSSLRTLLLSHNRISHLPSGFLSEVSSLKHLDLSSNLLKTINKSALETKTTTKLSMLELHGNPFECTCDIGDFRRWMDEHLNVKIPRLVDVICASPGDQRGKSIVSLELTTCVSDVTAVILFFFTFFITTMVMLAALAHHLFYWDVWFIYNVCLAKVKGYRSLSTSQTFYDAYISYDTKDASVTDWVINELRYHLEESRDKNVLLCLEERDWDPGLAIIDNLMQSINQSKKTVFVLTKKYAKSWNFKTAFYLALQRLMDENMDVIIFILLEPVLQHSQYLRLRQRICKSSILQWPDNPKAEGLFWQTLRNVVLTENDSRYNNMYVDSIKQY
- experimental_protocol: Agonist activity at TLR8 in human PBMC assessed as Th1-biased stimulatory activity measured as IFNgamma release after 16 hrs by immunoassay
Activity calls are given as the source filed them. No cut-off for these calls is given here.
Outcome codes: class 1 (active), class 0 (inactive)

smiles_notation=CCCCNc1nc(N)nc(C)c1CCCCN target_or_system="Toll-like receptor 8 (Homo sapiens)" class="class 1"
smiles_notation=CCCCNc1nc(N)nc(C)c1I target_or_system="Toll-like receptor 8 (Homo sapiens)" class="class 1"
smiles_notation=CCCCNc1nc(N)nc(-c2ccccc2)c1CCCCN target_or_system="Toll-like receptor 8 (Homo sapiens)" class="class 0"
smiles_notation=CCCCNc1cc(-c2ccccc2)nc(N)n1 target_or_system="Toll-like receptor 8 (Homo sapiens)" class="class 0"

---

- target_or_system: Toll-like receptor 8 (Homo sapiens) (UniProt Q9NR97)
- Sequence (whole entry): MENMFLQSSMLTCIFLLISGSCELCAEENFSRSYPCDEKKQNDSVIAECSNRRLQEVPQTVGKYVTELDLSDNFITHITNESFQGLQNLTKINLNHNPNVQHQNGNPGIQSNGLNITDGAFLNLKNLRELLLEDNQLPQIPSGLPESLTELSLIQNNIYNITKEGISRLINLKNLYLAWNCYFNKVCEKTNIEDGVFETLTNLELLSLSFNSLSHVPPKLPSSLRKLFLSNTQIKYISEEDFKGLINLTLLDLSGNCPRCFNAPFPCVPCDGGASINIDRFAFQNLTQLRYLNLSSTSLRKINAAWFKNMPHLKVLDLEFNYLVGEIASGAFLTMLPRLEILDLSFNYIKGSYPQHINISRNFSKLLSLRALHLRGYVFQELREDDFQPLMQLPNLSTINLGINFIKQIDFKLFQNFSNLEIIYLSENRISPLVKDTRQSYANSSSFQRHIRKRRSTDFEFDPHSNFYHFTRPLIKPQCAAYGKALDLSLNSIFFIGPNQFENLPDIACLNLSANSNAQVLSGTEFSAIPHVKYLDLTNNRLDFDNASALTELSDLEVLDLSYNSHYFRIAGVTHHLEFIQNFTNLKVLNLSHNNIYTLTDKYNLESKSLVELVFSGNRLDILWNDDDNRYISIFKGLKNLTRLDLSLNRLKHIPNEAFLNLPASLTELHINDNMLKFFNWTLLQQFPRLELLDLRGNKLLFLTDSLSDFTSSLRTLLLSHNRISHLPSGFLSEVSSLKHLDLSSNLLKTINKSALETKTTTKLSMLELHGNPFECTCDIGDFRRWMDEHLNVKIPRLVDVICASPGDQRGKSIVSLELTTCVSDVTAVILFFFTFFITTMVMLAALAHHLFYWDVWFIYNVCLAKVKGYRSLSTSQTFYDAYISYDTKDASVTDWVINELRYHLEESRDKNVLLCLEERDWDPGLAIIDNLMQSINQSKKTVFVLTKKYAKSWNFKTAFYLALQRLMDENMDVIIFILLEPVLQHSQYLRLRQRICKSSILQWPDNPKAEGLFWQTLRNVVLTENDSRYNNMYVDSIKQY
- experimental_protocol: Agonist activity at TLR8 in human PBMC assessed as induction of IL-6 levels after 16 hrs by immunoassay
Calls of active or inactive are those of the source. The calls are words filed in the database; no cut-off is given here.
Outcome codes: true (active), false (inactive)

smiles_notation=CCCCNc1cc(-c2ccccc2)nc(N)n1 class=false
smiles_notation=CCCCNc1nc(N)nc(C)c1CCCCN class=false
smiles_notation=CCCCNc1nc(N)nc(C)c1I class=true
smiles_notation=CCCCCn1c(N)nc2c(C)cccc21 class=true
smiles_notation=CCCCNc1nc(N)nc(-c2ccccc2)c1CCCCN class=false
